# measuredTarget: T1, extracellular domain (ECD) of recombinant human Sortilin with a C-terminal HIS tag (ECD-huSortilin-HIS) (human, UniProt Q99523 78-755)
# T1 construct: Bought (R&D Systems); also called human sortilin-ECD
# T1 sequence: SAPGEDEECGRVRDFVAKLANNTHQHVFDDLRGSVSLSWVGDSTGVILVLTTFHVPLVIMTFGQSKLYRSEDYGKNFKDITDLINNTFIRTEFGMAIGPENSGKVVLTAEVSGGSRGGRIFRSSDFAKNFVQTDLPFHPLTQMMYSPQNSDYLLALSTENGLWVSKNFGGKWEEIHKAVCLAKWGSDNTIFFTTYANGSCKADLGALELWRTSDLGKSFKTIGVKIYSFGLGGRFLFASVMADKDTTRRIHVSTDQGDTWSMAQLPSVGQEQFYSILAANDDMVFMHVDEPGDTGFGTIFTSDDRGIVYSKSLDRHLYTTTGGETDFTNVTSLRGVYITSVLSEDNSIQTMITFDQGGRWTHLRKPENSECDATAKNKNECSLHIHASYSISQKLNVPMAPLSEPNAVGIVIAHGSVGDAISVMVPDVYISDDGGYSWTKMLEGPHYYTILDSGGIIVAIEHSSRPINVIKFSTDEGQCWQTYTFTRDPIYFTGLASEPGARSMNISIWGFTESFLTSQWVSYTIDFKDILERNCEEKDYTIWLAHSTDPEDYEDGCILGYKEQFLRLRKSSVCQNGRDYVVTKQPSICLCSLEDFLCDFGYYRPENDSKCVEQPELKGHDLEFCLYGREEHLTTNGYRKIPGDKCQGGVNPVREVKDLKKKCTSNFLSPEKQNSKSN
# methodDescription: SPR (Biacore T200), mAb captured on anti-mouse chip, sortilin as analyte, global 1:1 fit
resultType: kon (M⁻¹ s⁻¹)
Record the value in M⁻¹ s⁻¹, omitting the unit from your answer.

Example entries begin here.
- binder: "mouse monoclonal antibody 6B15 (antibody, mouse IgG1, V domains shown) VH: EVQLVESGGDLVKPGGSLKLSCAAPGFTFSTYGMSWVRQTPDKRLEWVAIISSGGSYTYYSDTVKGRFTISRDNAKNTLNLQMSSLKSEDTAMYFCSRSSSHWYFDVWGTGTTVTVSS VL: DILMTQFPSSMSVSLGDTVSITCHASQGISSNIGWLQQKPGKSFKGLIYHGTNLKDGVPSRFSGSGSGTDFSLTISSLESEDFADYYCVQYAQFPYTFGGGTKLEKR"
  valueUnit: "M⁻¹ s⁻¹"
  quantitativeReadout: 127000
- binder: "mouse monoclonal antibody 5E20 (antibody, V domains shown, also called murine 5E20; m5E20) VH: EVQLVESGGDLVKPGGSLKLSCAAPGFTFSTYGMSWVRQTPDKRLEWVAIISSGGSYTYYSDTVKGRFTISRDNAKNTLYLQMSSLKSEDTAMYYCSRSSSHWYFDVWGTGTTVTVSS VL: DILMTQSPSSMSVSLGDTVSITCHASQGISSNIGWLQQKPGKSFKGLIYHGTNLKDGVPSRFSGSGSGADFSLTISSLESEDFADYFCVQYAQFPYTFGGGTKLEKR"
  valueUnit: "M⁻¹ s⁻¹"
  quantitativeReadout: 87700

Now turn to the next binder.
For mouse monoclonal antibody 2P22 (antibody, mouse IgG2b, V domains shown) VH: EVQLVESGGDLVKPGGSLKLSCAASGFTFSIYGMSWVRQTPDKKLEWVAAISSGGIYTYYPDSVKGRFTISRDNAKNTLYLQMSSLKSADTAMYYCTRNDYDWFAYWGQGTLVTVSA VL: DIQMTQSPSSLSASLGERVSLTCRASQDIGSSLNWLQQEPDGTIKRLIYATSSLDSGVPKRFSGSRSGSDYSLTISSLESEDFVDYYCLQYASSPYTFGGGTKLEIK , what is its reported kon? 108000

These measurements were taken from patent US20230348588A1.
